From: the nanobody polyreactivity screen of Harvey et al. (2022)

Assay: yeast display, Sf9 membrane polyspecificity reagent, FACS + sequencing; frameworks hold sequencing errors
PROPERTY_MEASURED: polyreactivity (PSR sort gate)

MACROMOLECULE_SEQUENCE	REPORTED
QVQLVESGGGLVQAGGSLRLSCAASGITFRYYAMGRYRQAPGKERELVAAITRSGSTTYADSVKGRFTISRDNAKNTVYLQMNSLKPVDTAVYYCAVDYYYLTGGVDYWGQGTQVTVSS	low polyreactivity
QVQLVESGGGLVQAGGSLRLSCAASGSTFAGYAMGWYRQAPGKERELVATITYSGGSTYYADSVKGRFTISRDNAKNTVYLQKNSLKPEDTAVYYCAKKASYWWGYEYWGQGTQVTVSS	low polyreactivity
QVQLVESGGGLVQAGGSLRLSCAASGSTFYAYTMGWYRQAPGKERELVAAITGRGGRTYYADSVKGRFTISRDNAKNTVYLQMNSLKPEDTAVYYCAAVYRKYPYSDYDYWGQGTQVTVSS	high polyreactivity
QVQLVESGGGLVHAGGSLRLSCAASGSTLAGYAMGWYRQAPGKERELVAAIDWTGGSTTYSDSVKGRFTISRDNAKNTVYLQMNSLKPEDTAVYFCHVDLGVNGDYWGQGTQVTVSS	low polyreactivity
QVQLVESGGGIVQAGGSLRLSCAASGSTLDDYVMGWYRHAPGKDRQLVAAISSSGSGTYYADSVKGRFTISRDNAKNTVYLQMNSLKQEDTAVYYCAAAYSYSGYGYYTYDYWGLGTQVTVSS	low polyreactivity
QVQLVESGGGLVQAGGSLRLSSAPSGSTFPGYAMGWYRQAPGKERQLVAAITGRGTSTYYADSVKGRFTISRDNAKNTVYLQMNSLKPEDTAVYYCAPYATFPTRYYYWGQGTQVTVSS	high polyreactivity
QVQLVESGGGLVQAGGSLRLSCAASGSTFYVYAMGWYRQAPGKERELVAAIDSGDSTNYADSVKGRFTISRDNAKNTVYLQMNSLKPEDTAVYYCAADRTVYPFNYWGQGTQVTVSS	low polyreactivity
QVQLVESGGGLVQAGGSLRLSCAASGRIFGYYAMGWYRQAPGKERELVAAISYSGGRTYYADSVKGRFTISRDNAKNTVYLQMNSLKPEDTAVYYCNARSRSYKWYTRTGYGYDYWGQGTQVTVSS	high polyreactivity
QVQLVESGGGLVQAGGSLRLSCASSGRIFYYYAMGWYRQAPGKEREFVARNRSSGGSTYADSVKGRFTISRDNAKNTVYLQMNSLKPEDTAVYYCARDGYTAVEYDYWGQGTQVTVSS	low polyreactivity
QVQLVESGGGLVQAGGSLRLSCAASGFNFGSNAMGWYRQAPGKERELVAAITYSGASTYYADSVKGRFTISRDNAKNTVYLQMNSLKPEDTAVYSCAADLTSYYGGDYWGQGTQVTVSS	low polyreactivity
QVQLVESGGGLVQAGGSLRLSCAASGLTLFYYVMGWYRQAPGKERELVAANTTSGGRTYYADSVKGRFTISRDNAKHTVYLQMNSLKPEDTAVYYCAAQSSVAYIHTPTYRYDYWGQGTQVTVSS	high polyreactivity

---

Assay: yeast display, Sf9 membrane polyspecificity reagent, FACS + sequencing; frameworks hold sequencing errors
PROPERTY_MEASURED: polyreactivity (PSR sort gate)

MACROMOLECULE_SEQUENCE	PROPERTY_MEASURED	REPORTED
QVQLVESGGGLVQAGGSLRLSCAASGRIFYFNAMGWYRQAPGKEREFVASINSIGDSTYYADSVKGRFTISRDNAKNTVYLHMNSLKPEDTAVYYCNADHGVINYRLDYWGQGTQVTVSS	polyreactivity (PSR sort gate)	low polyreactivity
QVQLVESGGGLVHAGGSLRLSCAASGRTFAPYTMGWYRPAPGKERELVASISTGGSTYYADSVKGRFTISRYNAKNTVYLQMNSLKPEDTAVYYCAATGWAYGYGYGYWGQGTQVTVSS	polyreactivity (PSR sort gate)	low polyreactivity
QVQLVESAGGLVQAGGSLRLSCDASGSIFTTNAMGWYRQAPGKERELVAAITSTAGSTYYADSVKGRFKISRDNAKNTVYLQMNSLKPEDTAVYYCAATYNVGVKAWYDYWGQGSQVTVSS	polyreactivity (PSR sort gate)	high polyreactivity
QVQLVESGGGLVQAGGSLRLSCAASGRNFSYYAMGWYRQAPGKERELVAAISWNGGSTYYADSVKGRFTISRDNAKNTVYLQMNSLKPEDTAVYYCAVLPHYEYDYWGQGTQVTVSS	polyreactivity (PSR sort gate)	high polyreactivity
QVQLVESGGGLVQAGGSLRLSCAASGGIFYGYAMGWYRQAPGKERELVAAITTGGSTNYADSVKGRFTISRDNAKNTVYLQMNSLKPEDTAVYYCAAPVNRAQGPYARRVERYGYWGQGTQVTVSS	polyreactivity (PSR sort gate)	low polyreactivity
QVQLVESGGGLVQAGGSLRLSCAASGRIFYPNAMGWYRQAPGKERELVAVIRSRGGSTYYADSVKGRFTISRDNAKNTVYLQMNSLKPEDTAVYYCAARWVGRRTKYDYWGQGTQVTVSS	polyreactivity (PSR sort gate)	high polyreactivity
QVQLVESGGGLVQAGGSLRLSCAASGSTFGPYAMGWYRQAPGKEREFVAGISKSTSSTYYADSVKGRFTISRDNAKNTVYLQMNSLKPEDTAVYYCAAQGGRNRGYRYYWGQGTQVTVSS	polyreactivity (PSR sort gate)	high polyreactivity
QVQLVESGGGLVQAGGSLRLSCAASGSIIDYYAMGWYRQAPGKERELVADITVTGDGTYYADSVKGRFTISRDNAKNTVYLQMNSLKPEDTAVYYCAADFWLVSFQWDFEYDYWGQGTQVTVSS	polyreactivity (PSR sort gate)	low polyreactivity
QVQLVESGGGLVQAGGSLRLSCAASGIIFDHYAMGWYRKAPGKERELVAAITSGGRTYYADSVKGRFTISRDNAKKTVYLQMNSLKPEDTAVYYCNARFRSSARLAYYYWGQGTQVTVSS	polyreactivity (PSR sort gate)	high polyreactivity
QVQLVESGGGLVQAGGSLRLSCSASGFNFRRYAMGLYRQAPGKERELVAVITSGGSTYYADSVKGRFTISRDNAKNTVYLQMNSLKTEDTAVYYCAARYYWYSQEYVLSSWWGDYCGQGTQVTVSS	polyreactivity (PSR sort gate)	high polyreactivity
QVQLVESGGGLVQAGGSLRLSCAASGRISAFNSMGWYRQAPGKERELVAAINVSGGNTYYADSVKGRFTISRDNAKNTFFLQMNSLKPEDTAVYYCAAERRRWGLDYYYWGQGTQVTVSS	polyreactivity (PSR sort gate)	high polyreactivity
QVQLVESGAGLVQAGGSLRLSCAASGSTFAINAMGWYRQAPGKERELVAAISSRGSTNYADSVKGRFTISRDNAKNTVYLQMNSLKPEDTAVYYCAADRVWGTPQAYVPSQFDYWGQGTQVTVSS	polyreactivity (PSR sort gate)	low polyreactivity
QVQLVESGGGLVQAGGSLRLSCAASGRIFGRYAMGRYRRAPGKESEFVAAIDGGGGRTYADSVKGRFTISRDNAKNTVYLQMNSLKPEDTAVYYCNAYVYSIHWGDLYWSEYDYWGQGTQVTVSS	polyreactivity (PSR sort gate)	high polyreactivity
QVQRVESGGGLVQAGGRLRLSCAASGSISVAKAMGWYRQAPGKERELVAAITDSGDDTYYADSVKGRFTISRDNAKNTVYLQMNSLKPEDTAVYYCAAGLRLDLGAMYYWGQGTQVTVSS	polyreactivity (PSR sort gate)	low polyreactivity
QVQLVESGGGFVQAGGSLRLSCAASGSIFYTYVMGWYRQAPGKERELVAAITWSGGSTYYADSVKGRFTISRDNAKNTVYLQMNSLKPEDTAVYYCAAVRGYRSSKYDYWGQGTQVTVSS	polyreactivity (PSR sort gate)	high polyreactivity
QVQLVESGGGLVQAGGSLRLSCAASGSTFWFYAMGWYRQAPGKERELVAAISSSGTNTYYADSVKGRFTISRDNAKNTVYLQMNSLKPEDTAVCYCAAQYRGSYRTTYDYWGQCTQVTVSS	polyreactivity (PSR sort gate)	low polyreactivity
QVQLVESGGGLVQAGGSLRLSCAASGSIFDIYAMAWYRQAPGKERELVARIRGSGGRTYYADSVKGRFTISRDNAKNTVYLQMNSLKPEDTAVYYCNAGVRAVNRKYDYWGQGTQVTVSS	polyreactivity (PSR sort gate)	high polyreactivity
QVQLVESGGGLVQAGGSLRLSCAASGRTLYFNAMGWYRQAPGKERALVADISIGGSTYSADSVKGRFTISRDNAKNTVYLQMNSLKPEDSAVYYCAANAHYYVSYAWSVDVDYWGQGTQVTVSS	polyreactivity (PSR sort gate)	high polyreactivity
QVQLVESGGGLVQAGGSLRFSCPASGLIFYYYVMGWYRQAPGKEREFVAAIRYRSSSTYYADSVKGRFTISRVNAKNTVYLQMNSVKPEDTAVYYCGADIYTYNLFYHGRWLDYNYWGQGTQVTVSS	polyreactivity (PSR sort gate)	high polyreactivity
QVQLVESGGGLVQAGGSLRLSCAASGFIFVSYALGWYRQAPGKETELVAAISSSGGTTNYADSVKGRFTISRDNAKNTVYLQMNSLKPEDTAVYYCAAYVYQTPHSLHIYDYWGQGTQVTVSS	polyreactivity (PSR sort gate)	low polyreactivity
QVQLVESGGGLVQAGGSLRLSCAASGIIFRKYAMGWYRQAPGKERELVAAISWRGGSTYYADSVKGRFTISRDNAKNTVYLQMNSLKPEDTAVYYCAAVAQITGYDYWGQGTQVTVSS	polyreactivity (PSR sort gate)	high polyreactivity
